assay_procedure: HPLC assay of lactone ring hydrolysis, free in PBS or associated with liposomes or micelles
Format: physicochemical
assay_setup: DMPC liposomes, pH 7.4, 37° C.
t1/2 drug DMPC Lip. reference

// known answers, use as guide
compound | t1/2 drug DMPC Lip.
CC[C@@]1(O)C(=O)OCc2c1cc1n(c2=O)Cc2cc3ccccc3nc2-1 [camptothecin] | > 3 days
CCC1(O)C(=O)OCc2c1cc1n(c2=O)Cc2cc3c(Cl)c4c(cc3nc2-1)OCO4 (stereo not drawn) | > 3 days

Consider the record given below.
# query: t1/2 drug DMPC Lip. of entry CCC1(O)C(=O)OCc2c1cc1n(c2=O)Cc2cc3cc4c(cc3nc2-1)OCO4 (stereo not drawn) [10,11-methylenedioxycamptothecin] > 3 days
